Target: T1, human MAdCAM (human, UniProt Q13477 19-317, limits assumed)
T1 construct: also called huMAdCAM; human MAdCAM-1
T1 sequence (looked up): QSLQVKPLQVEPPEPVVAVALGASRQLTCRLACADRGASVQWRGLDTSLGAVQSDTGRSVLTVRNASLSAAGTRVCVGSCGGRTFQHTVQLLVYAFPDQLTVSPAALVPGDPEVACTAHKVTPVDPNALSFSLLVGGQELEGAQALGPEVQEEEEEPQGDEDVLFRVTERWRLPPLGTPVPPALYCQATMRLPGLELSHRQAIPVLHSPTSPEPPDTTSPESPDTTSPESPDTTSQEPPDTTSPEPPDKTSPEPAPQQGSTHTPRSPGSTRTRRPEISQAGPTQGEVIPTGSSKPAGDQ
Assay: BLI (Octet), binder on anti-human Fc tips
Quantity: pKd
Field pKd (float): negative decimal logarithm of the concentration in molar.

Solved cases (6 shown):
binder="MIAB209 (antibody, V domains shown, tested with human Fc) VH: EVQLLESGGGLVQPGGSLRLSCAASGFTFDDYAMHWVRQAPGKGLEWVASITSSSAFIDYADSVKGRFTISRDNSKNTLYLQMNSLRAEDTAVYYCARERVDWNSYFDLWGQGTLVTVSS VL: EIVMTQSPATLSVSPGERATLSCRASQSVYSNYLAWYQQKPGQAPRLLIYRASTRATGIPARFSGSGSGTEFTLTISSLQSEDFAVYYCQQYSHWPPTFGQGTKVEIK" result_number=7.21
binder="MIAB133 (antibody, V domains shown, tested with human Fc; also called MIAB133-001) VH: EVQLLESGGGLVQPGGSLRLSCAASGFTFSSFWMHWVRQAPGKGLEWISYISGDSGYTNYADSVKGRFTISRDNSKNTLYLQMNSLRAEDTAVYYCARDRPYYYYMDVWGKGTTVTVSS VL: DIQMTQSPSSLSASVGDRVTITCRASQSVSRSLAWYQQKPGKAPKLLIYAASSLQSGVPSRFSGSGSGTDFTLTISSLQPEDFATYYCQQYKSYPVTFGQGTKVEIK" result_number=7.70
binder="MIAB182 (antibody, V domains shown, tested with human Fc; also called MIAB182-001) VH: EVQLLESGGGLVQPGGSLRLSCAASGFTFSSYWMHWVRQAPGKGLEWVSAISGSGGSTYYADSVKGRFTISRDNSKNTLYLQMNSLRAEDTAVYYCARDRPYYYYMDVWGKGTTVTVSS VL: DIQMTQSPSSLSASVGDRVTITCRASQSISRSLAWYQQKPGKAPKLLIYAASSLQSGVPSRFSGSGSGTDFTLTISSLQPEDFATYYCQQYKSYPVTFGQGTKVEIK" result_number=6.92
binder="MIAB148 (antibody, V domains shown, tested with human Fc) VH: EVQLLESGGGLVQPGGSLRLSCAASGFTFSDFWMHWVRQAPGKGLEWISYISGDSGYTNYADSVKGRFTISRDNSKNTLYLQMNSLRAEDTAVYYCARDRPYYYYMDVWGKGTTVTVSS VL: DIQMTQSPSSLSASVGDRVTITCRASQSVSRSLNWYQQKPGKAPKLLIYAASSLQSGVPSRFSGSGSGTDFTLTISSLQPEDFATYYCQQYKSYPVTFGQGTKVEIK" result_number=5.57
binder="MIAB175 (antibody, V domains shown, tested with human Fc; also called MIAB175-001) VH: EVQLLESGGGLVQPGGSLRLSCAASGFTFSSYWMHWVRQAPGKGLEWISYISGDSGYTNYADSVKGRFTISRDNSKNTLYLQMNSLRAEDTAVYYCARDRPYYYYMDVWGKGTTVTVSS VL: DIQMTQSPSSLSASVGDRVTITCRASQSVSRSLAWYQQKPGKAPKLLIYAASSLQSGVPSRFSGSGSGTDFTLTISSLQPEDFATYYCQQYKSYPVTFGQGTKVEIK" result_number=7.65
binder="MIAB145 (antibody, V domains shown, tested with human Fc; also called MIAB145-001) VH: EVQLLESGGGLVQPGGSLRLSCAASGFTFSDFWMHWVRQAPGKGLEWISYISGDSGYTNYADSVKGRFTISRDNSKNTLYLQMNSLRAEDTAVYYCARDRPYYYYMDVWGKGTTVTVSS VL: DIQMTQSPSSLSASVGDRVTITCRASQSISRSLAWYQQKPGKAPKLLIYAASSLQSGVPSRFSGSGSGTDFTLTISSLQPEDFATYYCQQYKSYPVTFGQGTKVEIK" result_number=7.65

*Q* Dear colleague, I am looking for the recorded pKd of the following binder: MIAB205 (antibody, V domains shown, tested with human Fc) VH: EVQLLESGGGLVQPGGSLRLSCAASGFTFDDYAMHWVRQAPGKGLEWVASITSSSAFIDYADSVKGRFTISRDNSKNTLYLQMNSLRAEDTAVYYCARERVDWFSYFDLWGQGTLVTVSS VL: EIVMTQSPATLSVSPGERATLSCRASQSVYSNLAWYQQKPGQAPRLLIYRASTRATGIPARFSGSGSGTEFTLTISSLQSEDFAVYYCQQYHIWPPTFGQGTKVEIK
*A* 7.25

*Q* Look up pKd: MIAB137 (antibody, V domains shown, tested with human Fc) VH: EVQLLESGGGLVQPGGSLRLSCAASGFTFSDFWMHWVRQAPGKGLEWVSAISGSGGSTYYADSVKGRFTISRDNSKNTLYLQMNSLRAEDTAVYYCARDRPYYYYMDVWGKGTTVTVSS VL: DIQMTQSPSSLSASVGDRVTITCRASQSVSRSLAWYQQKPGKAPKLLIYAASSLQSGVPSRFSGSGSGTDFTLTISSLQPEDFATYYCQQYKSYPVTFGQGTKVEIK
*A* 6.69

*Q* Requested read-out: pKd. Entry: MIAB178 (antibody, V domains shown, tested with human Fc; also called MIAB178-001) VH: EVQLLESGGGLVQPGGSLRLSCAASGFTFSSYWMHWVRQAPGKGLEWISAISGSSGSTYYADSVKGRFTISRDNSKNTLYLQMNSLRAEDTAVYYCARDRPYYYYMDVWGKGTTVTVSS VL: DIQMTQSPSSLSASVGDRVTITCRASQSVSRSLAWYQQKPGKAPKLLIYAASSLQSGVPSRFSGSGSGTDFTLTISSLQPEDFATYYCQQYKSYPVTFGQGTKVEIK
*A* 6.28

*Q* Return reported pKd; argument: MIAB206 (antibody, V domains shown, tested with human Fc) VH: EVQLLESGGGLVQPGGSLRLSCAASGFTFDDYAMHWVRQAPGKGLEWVASITSSSAFIDYADSVKGRFTISRDNSKNTLYLQMNSLRAEDTAVYYCARERVDWYSYFDLWGQGTLVTVSS VL: EIVMTQSPATLSVSPGERATLSCRASQSVYSNLAWYQQKPGQAPRLLIYRASTRATGIPARFSGSGSGTEFTLTISSLQSEDFAVYYCQQYHIWPPTFGQGTKVEIK
*A* 7.13
